B1: CDC34 (parent)
chain: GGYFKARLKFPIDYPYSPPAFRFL

Variants of: B1
Assay: protein stability index of a GFP-peptide fusion (GPS, HEK-293T) (PSI 1-6); higher = more stable;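 note: lentivirally expressed fusions sorted by FACS into six bins by GFP to DsRed ratio, PSI derived from sequencing read proportions per bin multiplied by bin number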
Details: c terminus: a fixed tail appended
For each entry below, report its protein stability index value.
Answers are plain numbers.

Sequence Data	protein stability index
GGYFKIRLKFPIDYPYSPPAFRFL	1.94
GGYFKARLKFPIDYPYDPPAFRFL	2.77
GGYFKARLKFPIDVPYSPPAFRFL	2.7
GGYFKARLKFPIDYNYSPPAFRFL	2.31
GGYFKARLKFPIDYPYSPPAFTFL	2.52
GGYFKARLKFPIDYPYSPPAFSFL	2.8

Give measured protein stability index for every item shown.
1. GGYFKARLKFPIDYPYSPPAFRFN
2. GGYFKARLKFPIDYPYSPPAFRNL
3. GGYFKARLKFPIDYIYSPPAFRFL
4. GGYFKARLKFPIDCPYSPPAFRFL
5. GGYFKARLKFPFDYPYSPPAFRFL
6. GGYFKARLKFPIDYLYSPPAFRFL
7. GGYFKARLKFPIDYPYSPPAKRFL
8. GGYFKARLKFPIDYPYKPPAFRFL

Marked response:
1: 3.21; 2: 2.95; 3: 2.75; 4: 2.57; 5: 3.1; 6: 2.92; 7: 2.16; 8: 3.04

Give measured protein stability index for every item shown.
1. GGQFKARLKFPIDYPYSPPAFRFL
2. GGYFKARLYFPIDYPYSPPAFRFL
3. GGYFKARLKFPIVYPYSPPAFRFL
4. GGYFKARLKWPIDYPYSPPAFRFL
5. GGYWKARLKFPIDYPYSPPAFRFL
6. GGYFKARLKFPIDYPYSPPQFRFL
7. GGYFKARLKFPIDYPYSPPAGRFL

Marked response:
[3.35, 3.41, 3.06, 3.49, 1.73, 2.41, 3.19]

Give measured protein stability index for every item shown.
1. GGYFKARLKFPIDYPYSPPARRFL
2. GGYFKARLKFPIGYPYSPPAFRFL
3. GGYFKARLKFPIDYVYSPPAFRFL
4. GGSFKARLKFPIDYPYSPPAFRFL
5. GGYFKARLKSPIDYPYSPPAFRFL
6. GGYFKARLKFIIDYPYSPPAFRFL
7. GGYFKFRLKFPIDYPYSPPAFRFL

Marked response:
2.82
4.23
2.21
1.54
3.88
2.84
3.63

Give measured protein stability index for every item shown.
1. GGYFKARLKFPIDYPYSPPAFRWL
2. GGFFKARLKFPIDYPYSPPAFRFL
3. GGYFKARLKFPIDYPYSPPRFRFL
4. GGTFKARLKFPIDYPYSPPAFRFL
5. GGYFKARLKFPIDYPYSPPATRFL
6. GGYFKARLKFPIDYPYVPPAFRFL

Marked response:
1: 1.43; 2: 1.77; 3: 3.03; 4: 2.39; 5: 2.67; 6: 4.24

// data source = the supplement of paper PMC10567573
